Reference source for all entries: paper PMC8989888

# experimental-target: SARS-CoV-2 3CL protease (Severe acute respiratory syndrome coronavirus 2)
# Assay type: biochemical
# Set-up: unit not given here
# stated-conditions: Conc 15 µM; average response of dose-response curve
value-type: Avg

>>> readout_value("CC1(C)C(=O)Nc2ccc(C(=O)CCl)cc21")
29.9
>>> readout_value("O=C(CCl)N1CCN(c2ccccc2[N+](=O)[O-])CC1")
20
>>> readout_value("N#C/C=C/S(=O)(=O)c1ccc(Cl)cc1")
30.7
